Data provenance: paper PMC4453610

- Assay info: clinical
- Condition notes: human, plasma, oral, AUC(0–24) Cycle 2, geometric mean, Day 1, Cycle 2, with 400 mg bid sorafenib
Measured endpoint: AUC(0-t) (ng·h/mL)
Express it in ng·h/mL; write the number only.

Find the recorded AUC(0-t) belonging to O=P1(N(CCCl)CCCl)NCCCO1 (stereo not shown) [cyclophosphamide] and report it.
11900

---

- Assay info: clinical
- Condition notes: human, plasma, oral, AUC(0–24) Cycle 1, geometric mean, Day 5, Cycle 1, without sorafenib
Measured endpoint: AUC(0-t)
Kindly write the number and append the unit.

Reported AUC(0-t), compound O=P1(N(CCCl)CCCl)NCCCO1 (stereo not shown) [cyclophosphamide] : ____
16700 ng·h/mL
